experiment: Cmax in mouse at 2.5 mg/kg, po by LC-MS/MS analysis; assay type: ADME, organism-based; set-up: route oral, dose 2.5 mg/kg; conditions: in vivo
assay-readout: Cmax (ng/mL)

smiles-input: Cn1c(=O)n(CC(=O)N2CCC2)c2cc(-c3ccc(C(F)(F)F)s3)cnc21
output-unit: ng/mL
observed: 413

* * *

assay: Solubility of compound in phosphate buffer at pH 2 measured after 3 days; type: physicochemical; conditions: time 3 day
Catalogue of solubility at 72 h values

smiles-input: Cc1ccc(-c2cnc3c(c2)n(CC(=O)N2CCC2)c(=O)n3C)s1
op: =
solubility at 72 h / µM: 39
//
smiles-input: Cc1csc(-c2cnc3c(c2)n(CC(=O)N(C)C)c(=O)n3C)c1
op: =
solubility at 72 h / µM: 31
//
smiles-input: Cn1c(=O)n(CC(=O)N2CCC2)c2cc(-c3ccc(C(F)(F)F)s3)cnc21
op: <
solubility at 72 h / µM: 4
//
smiles-input: CN(C)C(=O)Cn1c(=O)n(C)c2ncc(-c3cccc(C(F)(F)F)c3)cc21
op: =
solubility at 72 h / µM: 6
//
smiles-input: Cn1c(=O)n(CC(=O)N2CC(F)C2)c2cc(-c3ccc(C(F)(F)F)s3)cnc21
op: <
solubility at 72 h / µM: 4
//
smiles-input: Cn1c(=O)n(CC(=O)N2CCC2)c2cc(-c3cccc(C(F)(F)F)c3)cnc21
op: =
solubility at 72 h / µM: 19
//
smiles-input: O=C(Cn1c(=O)[nH]c2ncc(-c3cccc(C(F)(F)F)c3)cc21)NC1CC1
op: <
solubility at 72 h / µM: 4
//
smiles-input: CN(C)C(=O)Cn1c(=O)n(C)c2ncc(-c3ccc(C(F)(F)F)s3)cc21
op: <
solubility at 72 h / µM: 4
//
smiles-input: Cn1c(=O)n(CC(=O)N2CC(F)C2)c2cc(-c3cccc(C(F)(F)F)c3)cnc21
op: =
solubility at 72 h / µM: 17

* * *

biological target: Cytochrome P450 3A4 (Homo sapiens, UniProt P08684); assay: Inhibition of CYP3A4 in human liver microsomes using testosterone as substrate measured after 15 mins by LC-MS/MS analysis; type: ADME
Sequence (P08684 whole entry): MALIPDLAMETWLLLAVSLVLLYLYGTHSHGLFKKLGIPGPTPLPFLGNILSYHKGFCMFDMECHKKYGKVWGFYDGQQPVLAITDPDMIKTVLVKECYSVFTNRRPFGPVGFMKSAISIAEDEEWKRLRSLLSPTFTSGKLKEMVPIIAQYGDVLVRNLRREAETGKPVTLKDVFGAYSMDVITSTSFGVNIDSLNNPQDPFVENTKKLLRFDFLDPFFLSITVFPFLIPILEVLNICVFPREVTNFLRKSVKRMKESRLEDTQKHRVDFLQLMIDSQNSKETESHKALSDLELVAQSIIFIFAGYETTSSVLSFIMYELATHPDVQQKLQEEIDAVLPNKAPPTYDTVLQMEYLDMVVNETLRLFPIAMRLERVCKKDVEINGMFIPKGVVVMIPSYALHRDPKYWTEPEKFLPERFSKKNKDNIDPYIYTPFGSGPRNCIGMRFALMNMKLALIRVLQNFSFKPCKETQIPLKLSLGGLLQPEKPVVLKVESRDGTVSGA
pIC50: −log10 of the molar value.
assay-readout: pIC50

smiles-input: Cn1c(=O)n(CC(=O)N2CCC2)c2cc(-c3ccc(C(F)(F)F)s3)cnc21
observed: < 4.30

* * *

test: Half life in Sprague-Dawley rat at 0.1 mg/kg, iv or 0.5 mg/kg, po by LC-MS/MS analysis; assay type: ADME, organism-based; conditions: in vivo

smiles-input: CN(C)C(=O)Cn1c(=O)n(C)c2ncc(-c3ccc(C(F)(F)F)s3)cc21
half-life (h): 1.3

* * *

assay: Solubility of compound in simulated gastric fluid at pH 1.2 measured after 3 days; format: physicochemical; settings: time 3 day
assay-readout: solubility at 72 h (µM)

smiles-input: Cn1c(=O)n(CC(=O)N2CCC2)c2cc(-c3ccc(C(F)(F)F)s3)cnc21
output-unit: µM
observed: 4.4

* * *

assay: Volume of distribution at steady state in Sprague-Dawley rat at 0.5 mg/kg, iv or 2.5 mg/kg, po using 30% SBE-beta-CD formulation by LC-MS/MS analysis; assay type: ADME, organism-based; settings: in vivo, read-out: Vdss

smiles-input: Cn1c(=O)n(CC(=O)N2CC(F)C2)c2cc(-c3ccc(C(F)(F)F)s3)cnc21
Vd: 0.9 L/kg

* * *

assay: Drug level in Sprague-Dawley rat brain hippocampus at 0.03 mg/kg, iv after 30 min by LC-MS/MS analysis; assay type: ADME, organism-based; conditions: read-out: Drug uptake
assay-readout: concentration at 0.5 h (ng/mL)

smiles-input: Cn1c(=O)n(CC(=O)N2CCC2)c2cc(-c3ccc(C(F)(F)F)s3)cnc21
assay-readout: concentration at 0.5 h
observed: 22.7

* * *

assay: Cmax in Sprague-Dawley rat at 500 mg/kg, po administered via gavage after 24 hrs using HPMC formulation by LC-MS/MS analysis; type: ADME, organism-based; design: route oral, time 24 hrs, dose 500 mg/kg; conditions: in vivo
assay-readout: Cmax (ng/mL)

smiles-input: Cn1c(=O)n(CC(=O)N2CCC2)c2cc(-c3ccc(C(F)(F)F)s3)cnc21
observed: 6140

* * *

test: Cmax in Sprague-Dawley rat at 0.1 mg/kg, iv or 0.5 mg/kg, po by LC-MS/MS analysis; type: ADME, organism-based; set-up: dose 0.5 mg/kg; details: in vivo
assay-readout: Cmax (ng/mL)

smiles-input: CN(C)C(=O)Cn1c(=O)n(C)c2ncc(-c3ccc(C(F)(F)F)s3)cc21
assay-readout: Cmax
observed: 188

* * *

assay: Half life in Sprague-Dawley rat at 0.5 mg/kg, iv by LC-MS/MS analysis; assay type: ADME, organism-based; conditions: in vivo

smiles-input: Cn1c(=O)n(CC(=O)N2CCC2)c2cc(-c3ccc(C(F)(F)F)s3)cnc21
output-unit: min
half-life: 48

* * *

test: Tmax in Sprague-Dawley rat at 0.5 mg/kg, iv or 2.5 mg/kg, po using 1:1 PEG-400/water formulation by LC-MS/MS analysis; type: ADME, organism-based; conditions: in vivo

smiles-input: Cn1c(=O)n(CC(=O)N2CCC2)c2cc(-c3ccc(C(F)(F)F)s3)cnc21
output-unit: h
Tmax: 1.3

* * *

experiment: Cmax in Sprague-Dawley rat at 250 mg/kg, po administered via gavage after 24 hrs using HPMC formulation by LC-MS/MS analysis; type: ADME, organism-based; set-up: route oral, time 24 hrs, dose 250 mg/kg; settings: in vivo

smiles-input: Cn1c(=O)n(CC(=O)N2CCC2)c2cc(-c3ccc(C(F)(F)F)s3)cnc21
Cmax: 5480 ng/mL

* * *

test: Tmax in Sprague-Dawley rat at 1000 mg/kg, po administered via gavage after 24 hrs using HPMC formulation by LC-MS/MS analysis; type: ADME, organism-based; details: in vivo

smiles-input: Cn1c(=O)n(CC(=O)N2CCC2)c2cc(-c3ccc(C(F)(F)F)s3)cnc21
Tmax: 2.3 h

* * *

assay: Cmax in dog at 0.5 mg/kg, po by LC-MS/MS analysis; format: ADME, organism-based, Canis lupus familiaris; parameters: route oral, dose 0.5 mg/kg; conditions: in vivo

smiles-input: Cn1c(=O)n(CC(=O)N2CCC2)c2cc(-c3ccc(C(F)(F)F)s3)cnc21
Cmax / ng/mL: 351

* * *

assay: Volume of distribution at steady state in monkey at 0.1 mg/kg, iv by LC-MS/MS analysis; type: ADME, organism-based, Macaca mulatta; conditions: rhesus monkey, in vivo, read-out: Vdss

smiles-input: Cn1c(=O)n(CC(=O)N2CCC2)c2cc(-c3ccc(C(F)(F)F)s3)cnc21
output-unit: L/kg
Vd: 0.8

* * *

assay: Cmax in Sprague-Dawley rat at 500 mg/kg/day, po administered as nanosuspension measured for 14 days measured post last dose by LC-MS/MS analysis; type: ADME, organism-based; set-up: route oral, time 14 day, dose 500 mg/kg/day; details: in vivo

smiles-input: Cn1c(=O)n(CC(=O)N2CCC2)c2cc(-c3ccc(C(F)(F)F)s3)cnc21
Cmax / ng/mL: 21700

* * *

assay: Tmax in Sprague-Dawley rat at 250 mg/kg, po administered via gavage after 24 hrs using HPMC formulation by LC-MS/MS analysis; format: ADME, organism-based; conditions: in vivo

smiles-input: Cn1c(=O)n(CC(=O)N2CCC2)c2cc(-c3ccc(C(F)(F)F)s3)cnc21
Tmax (h): 2.7

* * *

assay: Clearance in Sprague-Dawley rat at 0.5 mg/kg, iv using 30% SBE-beta-CD formulation by LC-MS/MS analysis; assay type: ADME, organism-based; settings: in vivo

smiles-input: Cn1c(=O)n(CC(=O)N2CC(F)C2)c2cc(-c3ccc(C(F)(F)F)s3)cnc21
clearance [mL/min/kg]: 20

* * *

assay: Oral bioavailability in Sprague-Dawley rat at 2.5 mg/kg by LC-MS/MS analysis; format: ADME, organism-based; conditions: in vivo
assay-readout: bioavailability

smiles-input: Cn1c(=O)n(CC(=O)N2CCC2)c2cc(-c3ccc(C(F)(F)F)s3)cnc21
assay-readout: bioavailability
observed: 132%

* * *

assay: AUC (infinity) in Sprague-Dawley rat at 0.1 mg/kg, iv or 0.5 mg/kg, po by LC-MS/MS analysis; type: ADME, organism-based; set-up: dose 0.5 mg/kg; conditions: in vivo

smiles-input: CN(C)C(=O)Cn1c(=O)n(C)c2ncc(-c3ccc(C(F)(F)F)s3)cc21
AUC(0-inf): 912 ng·h/mL

* * *

test: AUC (infinity) in monkey at 0.1 mg/kg, iv by LC-MS/MS analysis; format: ADME, organism-based, Macaca mulatta; set-up: time infinity, route intravenous, dose 0.1 mg/kg; conditions: rhesus monkey, in vivo

smiles-input: Cn1c(=O)n(CC(=O)N2CCC2)c2cc(-c3ccc(C(F)(F)F)s3)cnc21
AUC(0-inf): 190 ng·h/mL

Where do these numbers come from? They come from ChEMBL document CHEMBL4725355.
